# assay.protocol: Compound concentration in brain, spleen and plasma samples of the GCase enhancement study
# Format: in vivo, mice (C57BL/6)
# condition.notes: male, C57BL/6, mouse, po; spleen; 10 mg/kg p.o., nine doses, 24-hour washout; Table 3B
observable: concentration at 24 h (nM)
Give bare numbers, in nM.

[in] Look up concentration at 24 h: O[C@@H]1CNCC(CF)[C@H]1O (stereo in doubt) [Compound A]
[out] 69

* * *

# assayed.system: recombinant human GCase (rhGCase; Cerezyme) (Homo sapiens, UniProt P04062, R534H)
# Construct: purchased Genzyme Corp
# Sequence (P04062 40-536 R534H): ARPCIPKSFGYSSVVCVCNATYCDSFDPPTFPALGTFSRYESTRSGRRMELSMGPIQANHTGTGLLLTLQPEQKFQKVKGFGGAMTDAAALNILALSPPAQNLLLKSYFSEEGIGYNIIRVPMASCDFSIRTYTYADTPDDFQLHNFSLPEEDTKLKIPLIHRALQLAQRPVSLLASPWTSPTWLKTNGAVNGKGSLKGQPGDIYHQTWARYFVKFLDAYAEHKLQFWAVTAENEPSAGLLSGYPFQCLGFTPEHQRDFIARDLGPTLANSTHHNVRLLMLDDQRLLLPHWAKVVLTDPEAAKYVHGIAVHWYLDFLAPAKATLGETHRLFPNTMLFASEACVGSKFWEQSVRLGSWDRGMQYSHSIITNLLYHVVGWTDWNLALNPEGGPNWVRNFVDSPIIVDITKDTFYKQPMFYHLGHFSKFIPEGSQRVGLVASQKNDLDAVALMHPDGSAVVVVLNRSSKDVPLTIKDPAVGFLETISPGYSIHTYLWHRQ
# assay.protocol: In vitro enzyme inhibition assay of rhGCase with 4-MU-β-D-Glc substrate
# Format: biochemical
# condition.notes: pH 7 (endoplasmic reticulum pH); read-out: IC50 pH 7
observable: IC50 (nM)
One number for each entry, in nM.

[in] Which IC50 is listed for O[C@@H]1[C@@H](CCl)CNC[C@H]1O [Compound B] ?
[out] 9.8
